# credit: patent US20240376151A1

# target_of_assay: PPIA (Homo sapiens)
# Construct: Full length PPIA (residues 1-165) with an N-terminal 6×his-yBBR-TEV tag; 6×his-yBBR-TEV (N); made in house; host or cells: E. coli BL21 (DE3) CodonPlus RIPL
# Sequence (P62937 whole entry, the tested form may be a part): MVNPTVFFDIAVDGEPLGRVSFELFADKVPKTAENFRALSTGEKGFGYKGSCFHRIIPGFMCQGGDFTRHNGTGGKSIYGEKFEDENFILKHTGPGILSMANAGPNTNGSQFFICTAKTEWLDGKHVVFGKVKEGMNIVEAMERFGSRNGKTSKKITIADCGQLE
# assay_procedure: Phage Library Screening with NGS, PPIA
# Assay type: binding
# measurement_conditions: target concentration 1000, second column
Bridge positions count the residues as written; N and C are the ends.
attribute_measured: phage screen counts, Target Concentration 1000

Below, 8 sequences whose answers are already recorded.
# residues, quantitative_readout
rows = [
    ("PNCHLYAWECY", 19),
    ("DPARADCHVAAYWCYHE", 7),
    ("PDCHIRAYVCH (Ac-PDCHIRAYVCH-NH2; bridge 3-10; also: Cys-Cys staple, linker not named)", 120),
    ("DPAYYDCHIAAYFCRTQ", 131),
    ("DPAQLNCHVAAFFCFQS", 8),
    ("DPARAACHVAAYWCYHQ", 7),
    ("DPALFDCHIAAYQCIFY", 55),
    ("DPARADCQVAAYWCYHQ", 21),
]

A = PTCHVQAWYCW
B = PNCHVEAWYCI
C = PHDCHVNAWYC
D = DPAQADCHIAAYLCLFD
E = DPASYDCHVAAYFCNFA
Input line: Returns the items ordered by phage screen counts, Target Concentration 1000, from maximum to minimum. # answer = labels listed in requested order
Output line: E, C, A, D, B
(E: 227, C: 45, A: 29, D: 18, B: 12)

P = PDCHIQAYICH
Q = PFCHIEAYYCW
Input line: Identify the entry with the larger phage screen counts, Target Concentration 1000. Options: P and Q Label of pick, please.
Output line: P

P = DPARYSCHVAAYECILN
Q = PDCHVAAYICY
Input line: Lowest phage screen counts, Target Concentration 1000? choose P or Q Label of pick, please.
Output line: P

----------
# target_of_assay: CHIP (Homo sapiens, UniProt Q9UNE7)
# Construct: N-term truncated CHIP (also known as STUB1, Uniprot ID: Q9UNE7, residues 23-303); made in house; host or cells: E. coli BL21 CodonPlus
# Sequence (Q9UNE7 23-303): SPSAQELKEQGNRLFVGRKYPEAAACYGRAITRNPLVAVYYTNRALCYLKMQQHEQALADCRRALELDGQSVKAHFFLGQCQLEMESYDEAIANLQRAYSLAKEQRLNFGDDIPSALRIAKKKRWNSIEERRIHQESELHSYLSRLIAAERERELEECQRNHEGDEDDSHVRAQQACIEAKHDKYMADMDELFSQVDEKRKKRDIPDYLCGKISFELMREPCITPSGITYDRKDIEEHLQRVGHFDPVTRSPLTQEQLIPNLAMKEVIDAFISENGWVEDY
# assay_procedure: Naive Library Presenter Screening (phage, NGS), CHIP
# Format: binding
# measurement_conditions: CHIP clusters (C83, C84); target concentration 1000 nM, second column
Numbered stars: 1 amine (or outer) side, 2 acyl side, 3 side chain; on linkers, the order of the positions; unused ones are H or OH. Bridge positions count the residues as written; N and C are the ends. Ends that are not written are not given here. Phenylene(1,4-NHCOCH2)2 = O=C(C[*:1])Nc1ccc(NC(=O)C[*:2])cc1
attribute_measured: interaction data at Target Concentration 1000

Below, 6 sequences whose answers are already recorded.
# residues, quantitative_readout
measured = [
    ("DPALWNCQYAAVMCTQL (linker 7-14 via Phenylene(1,4-NHCOCH2)2 (inferred); not fully specified (C-terminus))", 75),
    ("DPAFVRCQFAAASCHTI (linker 7-14 via Phenylene(1,4-NHCOCH2)2 (inferred))", 19),
    ("DPAFERCQLAAAFCYDS (linker 7-14 via Phenylene(1,4-NHCOCH2)2 (inferred))", 47),
    ("DPANHICHYAAHICDVD (DPANHICHYAAHICDVD-NH2; linker 7-14 via Phenylene(1,4-NHCOCH2)2 (inferred))", 49),
    ("DPAFFECVRAASICMVD (linker 7-14 via Phenylene(1,4-NHCOCH2)2 (inferred))", 54),
    ("DPAETFCWDAADICMVD (linker 7-14 via Phenylene(1,4-NHCOCH2)2 (inferred))", 32),
]

a = DPAFDRCQWAAALCMMN (linker 7-14 via Phenylene(1,4-NHCOCH2)2 (inferred))
b = DPAMWHCQYAAIMCNAN (DPAMWHCQYAAIMCNAN-NH2; linker 7-14 via Phenylene(1,4-NHCOCH2)2 (inferred))
Input line: Identify the entry with the larger interaction data at Target Concentration 1000. Options: a and b Label of pick, please.
Output line: a

1 = DPAELFCTEAADICMVD (linker 7-14 via Phenylene(1,4-NHCOCH2)2 (inferred))
2 = DPALEECTQAAHICMVD (linker 7-14 via Phenylene(1,4-NHCOCH2)2 (inferred); not fully specified (C-terminus))
Input line: Identify the entry with the larger interaction data at Target Concentration 1000. Options: 1 and 2 Label of pick, please.
Output line: 1
(1: 22, 2: 10)

----------
# target_of_assay: MDM2 (Homo sapiens, UniProt Q00987)
# Construct: made in house
# Sequence (Q00987 25-109): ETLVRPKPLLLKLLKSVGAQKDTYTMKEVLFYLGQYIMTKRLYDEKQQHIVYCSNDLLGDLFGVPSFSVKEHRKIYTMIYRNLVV
# assay_procedure: Naive Library Presenter Screening (phage, NGS), MDM2
# Format: binding
# measurement_conditions: MDM2 clusters (C82, C85); target concentration 30 nM
Numbered stars: 1 amine (or outer) side, 2 acyl side, 3 side chain; on linkers, the order of the positions; unused ones are H or OH. Bridge positions count the residues as written; N and C are the ends. Ends that are not written are not given here. Phenylene(1,4-NHCOCH2)2 = O=C(C[*:1])Nc1ccc(NC(=O)C[*:2])cc1
attribute_measured: interaction data at Target Concentration 30

Below, 5 sequences whose answers are already recorded.
# residues, quantitative_readout
measured = [
    ("DPADRDCFSAAWACVIR (linker 7-14 via Phenylene(1,4-NHCOCH2)2 (inferred))", 37),
    ("DPAHRQCFTAAWRCMMT (linker 7-14 via Phenylene(1,4-NHCOCH2)2 (inferred))", 42),
    ("DPATESCEDAAFWCHWI (DPATESCEDAAFWCHWI-NH2; linker 7-14 via Phenylene(1,4-NHCOCH2)2 (inferred))", 0),
    ("DPAHQQCFMAAWRCVVH (linker 7-14 via Phenylene(1,4-NHCOCH2)2 (inferred))", 48),
    ("DPAQEDCHAAAFWCIWD (DPAQEDCHAAAFWCIWD-NH2; linker 7-14 via Phenylene(1,4-NHCOCH2)2 (inferred))", 0),
]

I = DPAINTCQDAAFWCYWS (linker 7-14 via Phenylene(1,4-NHCOCH2)2 (inferred))
II = DPASADCFNAAWDCMWI (DPASADCFNAAWDCMWI-NH2; linker 7-14 via Phenylene(1,4-NHCOCH2)2 (inferred))
Input line: Lowest interaction data at Target Concentration 30? choose I or II Label of pick, please.
Output line: II
(II: 19, I: 131)

----------
# target_of_assay: RNF31 PUB domain (Homo sapiens, UniProt Q96EP0)
# Construct: MBP-TEV (N, cleaved yes); made in house; host or cells: E. coli BL21 (DE3) pLysS
# Sequence (Q96EP0 1-179): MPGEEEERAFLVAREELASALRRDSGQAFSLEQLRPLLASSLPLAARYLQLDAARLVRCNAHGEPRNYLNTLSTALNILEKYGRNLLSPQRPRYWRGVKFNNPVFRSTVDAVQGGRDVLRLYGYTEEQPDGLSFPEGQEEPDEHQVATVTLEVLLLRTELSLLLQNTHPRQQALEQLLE
# assay_procedure: Phage Library Screening with NGS, RNF31 PUB domain
# Type: binding
# measurement_conditions: RNF31 PUB domain clusters C41-C45; target concentration 300
attribute_measured: Phage library screen NGS readout, Target Concentration 300

a = DPAHTWCMYAAFDCFES
b = DPAFWECMYAASDCDAS
Input line: Identify the entry with the larger Phage library screen NGS readout, Target Concentration 300. Options: a and b Label of pick, please.
Output line: b
(b: 2, a: 1)

I = DPAYDWCMYAAHECVDQ
II = DPALEDCQWAALYCDEY
Input line: Lowest Phage library screen NGS readout, Target Concentration 300? choose I or II Label of pick, please.
Output line: II
(II: 2, I: 3)

P = DPAWMQCMYAAWDCNIE
Q = DPAWEHCLYAAYDCTHE
Input line: Identify the entry with the larger Phage library screen NGS readout, Target Concentration 300. Options: P and Q Label of pick, please.
Output line: P

P = DPAIQECYLAAQVCTTY
Q = DPAMEWCWDAAVFCTYS
Input line: Identify the entry with the larger Phage library screen NGS readout, Target Concentration 300. Options: P and Q Label of pick, please.
Output line: Q
(Q: 6, P: 4)

A = DPAFDWCLYAADDCAET
B = DPAAEDCHIAAMVCMTY
Input line: Lowest Phage library screen NGS readout, Target Concentration 300? choose A or B Label of pick, please.
Output line: A
